# assayed target: UniProt:Q9HBH9
# Sequence (Q9HBH9 whole entry, looked up): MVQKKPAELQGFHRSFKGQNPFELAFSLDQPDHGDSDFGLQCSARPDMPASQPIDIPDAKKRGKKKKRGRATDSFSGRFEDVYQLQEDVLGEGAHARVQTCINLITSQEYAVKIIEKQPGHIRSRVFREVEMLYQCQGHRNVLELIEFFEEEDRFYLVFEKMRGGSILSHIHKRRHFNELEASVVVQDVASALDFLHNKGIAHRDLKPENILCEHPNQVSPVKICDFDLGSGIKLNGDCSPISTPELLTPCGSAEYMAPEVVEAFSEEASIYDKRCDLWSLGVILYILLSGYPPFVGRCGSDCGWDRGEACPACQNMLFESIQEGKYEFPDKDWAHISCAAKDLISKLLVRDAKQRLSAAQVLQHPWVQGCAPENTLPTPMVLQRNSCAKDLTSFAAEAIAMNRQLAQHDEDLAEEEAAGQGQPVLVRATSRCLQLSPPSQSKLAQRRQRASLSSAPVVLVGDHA
# protocol summary: radiometric filter-binding kinase assay, Kinase HotSpot
# measurement setup: compound 0.5 µM; ATP 10 µM
readout name: residual activity (%)
Please respond with the number in % and leave the unit unwritten.

- test smiles: "N#Cc1c[nH]c2c[nH]/c(=N\\Cc3cccnc3)cc2/c1=N\\c1ccc(F)c(Cl)c1"
  residual activity / %: 79.3

*Q* Please list residual activity recorded for the compound C[C@@H]1CCN(C(=O)CC#N)C[C@@H]1N(C)c1ncnc2[nH]ccc12
*A* 97.4

*Q* Please list residual activity recorded for the compound O=C1C(Cl)=C(N2C(=O)CCC2=O)C(=O)c2ccccc21
*A* 84.5

*Q* Please list residual activity recorded for the compound O=C(c1cc2cc(O)ccc2[nH]1)c1cc2cc(O)ccc2[nH]1
*A* 46.8

*Q* Please list residual activity recorded for the compound NC(=O)c1cccc(-c2cc(Nc3ccc(OC(F)(F)F)cc3)ncn2)c1
*A* 95.4

---

# assayed target: EPHA3 (human) (UniProt P29320)
# protocol summary: radiometric filter-binding kinase assay, Kinase HotSpot
# measurement setup: compound 0.5 µM; ATP 10 µM
readout name: residual activity (%)
Please respond with the number in % and leave the unit unwritten.

Observe how each entry below is paired with its result.
- test smiles: "O=C1C(Cl)=C(N2C(=O)CCC2=O)C(=O)c2ccccc21"
  residual activity, %: 105
- test smiles: "COc1ccc(C(=O)Nc2sc3c(c2C(N)=O)CCCC3)cc1OC"
  residual activity, %: 108
- test smiles: "CN(C)c1ccc(/C=C2\\C(=O)Nc3ccccc32)cc1"
  residual activity, %: 102
- test smiles: "C[C@@H]1CCN(C(=O)CC#N)C[C@@H]1N(C)c1ncnc2[nH]ccc12"
  residual activity, %: 94.1
- test smiles: "Fc1ccc(-c2nc3n(c2-c2ccncc2)CCS3)cc1"
  residual activity, %: 112
- test smiles: "Cc1cccc(-c2nc(C(C)(C)C)[nH]c2-c2ccc3c(c2)OCO3)n1"
  residual activity, %: 101
- test smiles: "O=C1Nc2ccc(Br)cc2/C1=C\\c1cc2c([nH]1)CCCC2"
  residual activity, %: 94.6
- test smiles: "O=C1c2ccccc2-c2nc3nnnn3nc21"
  residual activity, %: 81.6

*Q* Please list residual activity recorded for the compound CN(C)S(=O)(=O)c1ccc2c(c1)/C(=C/c1cc3c([nH]1)CCCC3)C(=O)N2
*A* 98.6

*Q* Please list residual activity recorded for the compound CC(C)(C)c1cc(C=C(C#N)C#N)cc(Br)c1O
*A* 102

---

# assayed target: MARK2 (human) (UniProt Q7KZI7)
# Sequence (Q7KZI7 whole entry, looked up): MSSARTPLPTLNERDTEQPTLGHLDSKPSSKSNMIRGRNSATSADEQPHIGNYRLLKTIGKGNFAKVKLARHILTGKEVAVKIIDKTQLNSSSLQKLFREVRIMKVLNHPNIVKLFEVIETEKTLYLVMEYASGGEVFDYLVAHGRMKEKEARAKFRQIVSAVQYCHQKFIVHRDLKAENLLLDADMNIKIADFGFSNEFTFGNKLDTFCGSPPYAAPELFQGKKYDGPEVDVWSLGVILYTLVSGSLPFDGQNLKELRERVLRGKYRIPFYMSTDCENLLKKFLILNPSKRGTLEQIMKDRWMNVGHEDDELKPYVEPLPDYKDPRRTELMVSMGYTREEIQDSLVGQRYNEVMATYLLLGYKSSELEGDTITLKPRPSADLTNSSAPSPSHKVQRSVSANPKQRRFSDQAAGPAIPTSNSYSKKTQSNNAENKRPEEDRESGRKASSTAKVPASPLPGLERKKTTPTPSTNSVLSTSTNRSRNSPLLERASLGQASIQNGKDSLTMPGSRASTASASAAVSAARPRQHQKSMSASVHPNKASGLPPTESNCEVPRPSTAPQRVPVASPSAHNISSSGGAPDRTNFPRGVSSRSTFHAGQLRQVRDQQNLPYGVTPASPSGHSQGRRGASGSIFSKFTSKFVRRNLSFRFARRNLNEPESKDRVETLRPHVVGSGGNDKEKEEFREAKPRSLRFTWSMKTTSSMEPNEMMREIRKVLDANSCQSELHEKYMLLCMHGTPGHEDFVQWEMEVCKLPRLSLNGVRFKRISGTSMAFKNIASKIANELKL
# protocol summary: radiometric filter-binding kinase assay, Kinase HotSpot
# measurement setup: compound 0.5 µM; ATP 10 µM
readout name: residual activity (%)
Please respond with the number in % and leave the unit unwritten.

Observe how each entry below is paired with its result.
- test smiles: "c1ccc2c(-c3ccncc3)c[nH]c2c1"
  readout unit: "%"
  residual activity: 102
- test smiles: "Cc1nc(-c2ccccc2)c(-c2ccncc2)o1"
  readout unit: "%"
  residual activity: 94.3
- test smiles: "C[C@@H]1CCN(C(=O)CC#N)C[C@@H]1N(C)c1ncnc2[nH]ccc12"
  readout unit: "%"
  residual activity: 91.8

*Q* Please list residual activity recorded for the molecule Cn1c2ccccc2c2c3c(c4c5ccccc5n(CCC#N)c4c21)CNC3=O
*A* 11.8

*Q* Please list residual activity recorded for the molecule O=C1Nc2ccc(Br)cc2/C1=C\c1cc2c([nH]1)CCCC2
*A* 77

*Q* Please list residual activity recorded for the molecule COc1cc2ncnc(Nc3ccc(OCc4ccccc4)cc3)c2cc1OC
*A* 108

*Q* Please list residual activity recorded for the molecule COc1cc(Nc2c(C#N)cnc3cc(OCCCN4CCN(C)CC4)c(OC)cc23)c(Cl)cc1Cl
*A* 99.9

*Q* Please list residual activity recorded for the molecule COc1ccc2c(c1)c(C1=C(c3c[nH]c4ccccc34)C(=O)NC1=O)cn2CCCN(C)C
*A* 91.8

---

# assayed target: TGFBR2 (human)
# protocol summary: radiometric filter-binding kinase assay, Kinase HotSpot
# measurement setup: compound 0.5 µM; ATP 10 µM
readout name: residual activity (%)
Please respond with the number in % and leave the unit unwritten.

Observe how each entry below is paired with its result.
- test smiles: "COc1ccc2c(c1)c(C1=C(c3c[nH]c4ccccc34)C(=O)NC1=O)cn2CCCN(C)C"
  residual activity [%]: 120
- test smiles: "N#C/C(=C\\c1ccc(O)c(O)c1)C(=O)NCc1ccccc1"
  residual activity [%]: 111
- test smiles: "COc1ccc2c(c1)/C(=C/c1cnc[nH]1)C(O)=N2"
  residual activity [%]: 107

*Q* Please list residual activity recorded for the compound O=C1Nc2ccc(Br)cc2/C1=C\c1cc2c([nH]1)CCCC2
*A* 101

*Q* Please list residual activity recorded for the compound CCCCc1c(-c2ccc(OC)cc2)[nH]c2nccnc12
*A* 74.8

*Q* Please list residual activity recorded for the compound c1ccc2c(-c3ccncc3)c[nH]c2c1
*A* 119

*Q* Please list residual activity recorded for the compound COc1cc2ncnc(Nc3ccc(Oc4ccccc4)cc3)c2cc1OC
*A* 137

*Q* Please list residual activity recorded for the compound COc1cc(Nc2c(C#N)cnc3cc(OCCCN4CCN(C)CC4)c(OC)cc23)c(Cl)cc1Cl
*A* 95.7

---

# assayed target: BRSK1 (human) (UniProt Q8TDC3)
# Sequence (Q8TDC3 whole entry, looked up): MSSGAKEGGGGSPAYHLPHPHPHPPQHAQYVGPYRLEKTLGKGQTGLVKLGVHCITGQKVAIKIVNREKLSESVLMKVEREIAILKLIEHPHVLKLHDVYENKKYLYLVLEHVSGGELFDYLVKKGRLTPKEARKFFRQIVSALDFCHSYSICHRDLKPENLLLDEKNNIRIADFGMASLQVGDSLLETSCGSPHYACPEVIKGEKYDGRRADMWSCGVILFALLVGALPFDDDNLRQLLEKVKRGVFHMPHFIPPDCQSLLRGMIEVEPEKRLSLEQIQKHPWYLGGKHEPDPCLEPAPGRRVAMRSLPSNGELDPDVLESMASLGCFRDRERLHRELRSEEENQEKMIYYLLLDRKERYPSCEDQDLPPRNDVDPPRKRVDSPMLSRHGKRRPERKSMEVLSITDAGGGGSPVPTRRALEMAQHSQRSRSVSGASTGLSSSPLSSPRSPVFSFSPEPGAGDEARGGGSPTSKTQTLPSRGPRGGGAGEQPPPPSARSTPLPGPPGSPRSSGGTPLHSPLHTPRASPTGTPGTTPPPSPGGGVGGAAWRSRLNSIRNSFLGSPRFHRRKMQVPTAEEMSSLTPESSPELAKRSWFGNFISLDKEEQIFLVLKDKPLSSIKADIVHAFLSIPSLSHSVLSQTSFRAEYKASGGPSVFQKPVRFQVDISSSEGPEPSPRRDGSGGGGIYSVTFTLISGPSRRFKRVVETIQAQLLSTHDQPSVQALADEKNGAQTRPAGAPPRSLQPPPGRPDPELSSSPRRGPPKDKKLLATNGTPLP
# protocol summary: radiometric filter-binding kinase assay, Kinase HotSpot
# measurement setup: compound 0.5 µM; ATP 10 µM
Output Fulfilled for residual activity not less than 90%; output Not fulfilled otherwise.

- test smiles: "COc1cc2ncnc(Nc3ccc(Oc4ccccc4)cc3)c2cc1OC"
  label class: "Fulfilled"

*Q* # check: residual activity of COc1ccc2c(c1)c(C1=C(c3c[nH]c4ccccc34)C(=O)NC1=O)cn2CCCN(C)C is greater than or equal to 90%
*A* Not fulfilled

*Q* # check: residual activity of CN(C)CCCn1cc(C2=C(c3c[nH]c4ccccc34)C(=O)NC2=O)c2ccccc21 is greater than or equal to 90%
*A* Not fulfilled

*Q* # check: residual activity of C[C@@H]1CCN(C(=O)CC#N)C[C@@H]1N(C)c1ncnc2[nH]ccc12 is greater than or equal to 90%
*A* Fulfilled

*Q* # check: residual activity of O=C1Nc2ccc(Br)cc2/C1=C\c1cc2c([nH]1)CCCC2 is greater than or equal to 90%
*A* Not fulfilled

*Q* # check: residual activity of COc1ccc2c(c1)/C(=C/c1cnc[nH]1)C(O)=N2 is greater than or equal to 90%
*A* Not fulfilled

*Q* # check: residual activity of COc1cc(Nc2c(C#N)cnc3cc(OCCCN4CCN(C)CC4)c(OC)cc23)c(Cl)cc1Cl is greater than or equal to 90%
*A* Fulfilled

*Q* # check: residual activity of COc1ccc(Cl)cc1NC(=O)Nc1cc(C)nc2ccccc12 is greater than or equal to 90%
*A* Fulfilled

---

# assayed target: ROS1 (human) (UniProt P08922)
# Sequence (P08922 whole entry, looked up): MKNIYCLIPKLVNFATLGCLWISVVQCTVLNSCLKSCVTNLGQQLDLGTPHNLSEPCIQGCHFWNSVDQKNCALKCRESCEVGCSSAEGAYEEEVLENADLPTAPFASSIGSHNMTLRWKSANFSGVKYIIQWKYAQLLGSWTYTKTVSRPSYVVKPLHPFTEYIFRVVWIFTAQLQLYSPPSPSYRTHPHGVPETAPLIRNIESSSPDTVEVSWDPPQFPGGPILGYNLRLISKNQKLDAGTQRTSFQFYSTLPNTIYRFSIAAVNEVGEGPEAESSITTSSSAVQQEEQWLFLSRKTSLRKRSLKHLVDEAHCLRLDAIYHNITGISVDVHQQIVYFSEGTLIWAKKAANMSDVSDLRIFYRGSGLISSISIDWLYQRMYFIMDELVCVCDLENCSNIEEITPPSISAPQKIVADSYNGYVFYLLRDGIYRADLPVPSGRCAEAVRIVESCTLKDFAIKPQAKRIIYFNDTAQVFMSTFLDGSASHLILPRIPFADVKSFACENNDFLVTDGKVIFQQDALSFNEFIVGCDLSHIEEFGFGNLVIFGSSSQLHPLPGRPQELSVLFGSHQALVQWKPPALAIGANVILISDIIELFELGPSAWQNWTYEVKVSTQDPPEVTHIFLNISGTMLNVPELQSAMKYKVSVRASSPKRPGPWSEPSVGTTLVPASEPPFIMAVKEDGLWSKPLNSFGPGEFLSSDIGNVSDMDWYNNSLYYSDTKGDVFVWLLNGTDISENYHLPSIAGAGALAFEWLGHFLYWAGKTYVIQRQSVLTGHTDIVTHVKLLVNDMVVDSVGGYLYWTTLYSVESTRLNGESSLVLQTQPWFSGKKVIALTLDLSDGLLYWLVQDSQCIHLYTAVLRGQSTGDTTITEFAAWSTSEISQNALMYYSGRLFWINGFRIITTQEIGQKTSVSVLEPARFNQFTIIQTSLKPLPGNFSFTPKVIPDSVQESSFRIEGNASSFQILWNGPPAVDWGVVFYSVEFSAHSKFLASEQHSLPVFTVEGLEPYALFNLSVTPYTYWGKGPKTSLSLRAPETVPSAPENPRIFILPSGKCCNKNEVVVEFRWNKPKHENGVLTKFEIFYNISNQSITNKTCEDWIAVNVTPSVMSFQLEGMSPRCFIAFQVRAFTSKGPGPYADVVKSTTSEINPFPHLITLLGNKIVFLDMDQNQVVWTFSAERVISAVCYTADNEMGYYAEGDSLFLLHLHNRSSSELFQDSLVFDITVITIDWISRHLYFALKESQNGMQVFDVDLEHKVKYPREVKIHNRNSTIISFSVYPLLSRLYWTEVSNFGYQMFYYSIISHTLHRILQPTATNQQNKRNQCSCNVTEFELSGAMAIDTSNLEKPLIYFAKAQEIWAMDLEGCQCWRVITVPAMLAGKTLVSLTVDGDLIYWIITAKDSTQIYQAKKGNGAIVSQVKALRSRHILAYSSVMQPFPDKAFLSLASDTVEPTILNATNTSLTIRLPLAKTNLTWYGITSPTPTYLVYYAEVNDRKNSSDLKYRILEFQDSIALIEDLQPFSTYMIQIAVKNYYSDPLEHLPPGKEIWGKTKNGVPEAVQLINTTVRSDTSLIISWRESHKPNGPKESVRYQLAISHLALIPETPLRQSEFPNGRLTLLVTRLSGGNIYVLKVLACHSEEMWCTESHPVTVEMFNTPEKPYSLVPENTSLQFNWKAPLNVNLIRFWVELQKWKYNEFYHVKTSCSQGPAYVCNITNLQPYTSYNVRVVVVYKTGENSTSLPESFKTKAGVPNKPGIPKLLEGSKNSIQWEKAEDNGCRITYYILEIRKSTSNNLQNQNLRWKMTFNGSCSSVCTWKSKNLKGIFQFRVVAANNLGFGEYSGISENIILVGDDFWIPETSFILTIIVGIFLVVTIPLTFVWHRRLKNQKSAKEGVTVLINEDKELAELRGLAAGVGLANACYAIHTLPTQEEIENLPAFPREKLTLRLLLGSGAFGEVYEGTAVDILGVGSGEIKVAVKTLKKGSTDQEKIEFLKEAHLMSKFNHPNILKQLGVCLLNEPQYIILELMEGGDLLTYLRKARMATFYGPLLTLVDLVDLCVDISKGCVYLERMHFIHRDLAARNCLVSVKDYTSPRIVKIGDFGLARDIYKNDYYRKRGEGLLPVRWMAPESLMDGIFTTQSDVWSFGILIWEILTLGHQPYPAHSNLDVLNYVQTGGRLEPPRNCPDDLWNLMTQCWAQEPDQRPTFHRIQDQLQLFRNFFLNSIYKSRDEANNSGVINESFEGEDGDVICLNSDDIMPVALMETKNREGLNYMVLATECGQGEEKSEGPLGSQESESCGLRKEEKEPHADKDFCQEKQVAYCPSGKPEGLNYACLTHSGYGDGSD
# protocol summary: radiometric filter-binding kinase assay, Kinase HotSpot
# measurement setup: compound 0.5 µM; ATP 10 µM
Field 'label' (enum: fulfilled / not fulfilled). Set to fulfilled when residual activity is strictly under 90%; else not fulfilled.

Observe how each entry below is paired with its result.
- test smiles: "O=C1C(Cl)=C(N2C(=O)CCC2=O)C(=O)c2ccccc21"
  label class: "not fulfilled"
- test smiles: "CS(=O)(=O)CCNCc1ccc(-c2ccc3ncnc(Nc4ccc(OCc5cccc(F)c5)c(Cl)c4)c3c2)o1"
  label class: "not fulfilled"
- test smiles: "Cc1nc(-c2ccccc2)c(-c2ccncc2)o1"
  label class: "not fulfilled"
- test smiles: "COc1ccc(S(=O)(=O)N(CCO)c2ccccc2CN(C)C/C=C/c2ccc(Cl)cc2)cc1"
  label class: "not fulfilled"

*Q* Is residual activity of Cc1cccc(-c2nc(C(C)(C)C)[nH]c2-c2ccc3c(c2)OCO3)n1 strictly below 90%?
*A* not fulfilled

*Q* Is residual activity of CN(C)S(=O)(=O)c1ccc2c(c1)/C(=C/c1cc3c([nH]1)CCCC3)C(=O)N2 strictly below 90%?
*A* fulfilled

*Q* Is residual activity of COc1ccc(C(=O)Nc2sc3c(c2C(N)=O)CCCC3)cc1OC strictly below 90%?
*A* fulfilled

*Q* Is residual activity of Cn1c2ccccc2c2c3c(c4c5ccccc5n(CCC#N)c4c21)CNC3=O strictly below 90%?
*A* fulfilled

*Q* Is residual activity of O=C1NC(=O)c2c1c1c3ccccc3[nH]c1n1cncc21 strictly below 90%?
*A* fulfilled

---

# assayed target: NEK3 (human)
# protocol summary: radiometric filter-binding kinase assay, Kinase HotSpot
# measurement setup: compound 0.5 µM; ATP 10 µM
readout name: residual activity (%)
Please respond with the number in % and leave the unit unwritten.

Observe how each entry below is paired with its result.
- test smiles: "Cn1c2ccccc2c2c3c(c4c5ccccc5n(CCC#N)c4c21)CNC3=O"
  assayed target: "NEK3 (human)"
  residual activity [%]: 133
- test smiles: "CS(=O)(=O)CCNCc1ccc(-c2ccc3ncnc(Nc4ccc(OCc5cccc(F)c5)c(Cl)c4)c3c2)o1"
  assayed target: "NEK3 (human)"
  residual activity [%]: 99.6
- test smiles: "COc1ccc(C(=O)Nc2sc3c(c2C(N)=O)CCCC3)cc1OC"
  assayed target: "NEK3 (human)"
  residual activity [%]: 95.8

*Q* Please list residual activity recorded for the molecule COc1ccc2c(c1)/C(=C/c1cnc[nH]1)C(O)=N2
*A* 87.8

*Q* Please list residual activity recorded for the molecule O=C1C(Cl)=C(N2C(=O)CCC2=O)C(=O)c2ccccc21
*A* 102

*Q* Please list residual activity recorded for the molecule Cc1cncc2cccc(S(=O)(=O)N3CCCN(C(=O)CN)C[C@H]3C)c12
*A* 91.1
